Answer each item with its documented FACS-Seq fitted mean (log10).
B1: library; a variant is named by its letters at N, in order (parent)
chain: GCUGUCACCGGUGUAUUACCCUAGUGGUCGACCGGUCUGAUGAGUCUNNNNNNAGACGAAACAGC

# Variants of: B1
# assay_info: FACS-Seq fitted mean relative fluorescence mCherry/BFP without ligand (log10 relative fluorescence); ligand: hypoxanthine (xanthine aptamer); higher = higher reporter protein expression
# experimental_parameters: HEK293T, ligand present: no
Could you keep your reply to the number by itself?

Record AUACCG , field FACS-Seq fitted mean (log10): 0.00532

Record CAAAAC , field FACS-Seq fitted mean (log10): 0.248

Record GAUGGU , field FACS-Seq fitted mean (log10): 0.501

Record AGCCAG , field FACS-Seq fitted mean (log10): 0.512

Record AACAAG , field FACS-Seq fitted mean (log10): 0.124

Record UCGCGU , field FACS-Seq fitted mean (log10): 0.334

Record AAAUGG , field FACS-Seq fitted mean (log10): 0.175

Record UUGUAU , field FACS-Seq fitted mean (log10): -0.614

Record UAAGGA , field FACS-Seq fitted mean (log10): 0.215

Record UGAUCG , field FACS-Seq fitted mean (log10): 0.525

Record GGCAAC , field FACS-Seq fitted mean (log10): -0.242

Record CGGUGU , field FACS-Seq fitted mean (log10): 0.576

Record CCAUAC , field FACS-Seq fitted mean (log10): 0.152

Record UACGCA , field FACS-Seq fitted mean (log10): -0.76

Record UCUGAA , field FACS-Seq fitted mean (log10): 0.338

Record AAGCGG , field FACS-Seq fitted mean (log10): -0.261

Record CACACU , field FACS-Seq fitted mean (log10): 0.146

Record CCUAAA , field FACS-Seq fitted mean (log10): 0.725

Record GAGCGA , field FACS-Seq fitted mean (log10): 0.291

Record CCUAUA , field FACS-Seq fitted mean (log10): 0.827

Record GUAGAG , field FACS-Seq fitted mean (log10): 0.148

Record GAUAGG , field FACS-Seq fitted mean (log10): -0.0874

Record CCGGAG , field FACS-Seq fitted mean (log10): 0.0637

Record GAUCAC , field FACS-Seq fitted mean (log10): 0.374

Record UACCGG , field FACS-Seq fitted mean (log10): 0.141

Record GAUUAU , field FACS-Seq fitted mean (log10): 0.368

Record GCAAAC , field FACS-Seq fitted mean (log10): 0.411

Record UACAGA , field FACS-Seq fitted mean (log10): 0.0904

Record UGAGAG , field FACS-Seq fitted mean (log10): 0.372

Record GCAAUG , field FACS-Seq fitted mean (log10): 0.028

Record CGAGUC , field FACS-Seq fitted mean (log10): 0.0141

Record CCCUUA , field FACS-Seq fitted mean (log10): 0.315

Record GCGACC , field FACS-Seq fitted mean (log10): 0.0759
